System: SW1271 complex spheroids with HUVEC/MSC, growth, % test/control
Experiment: Anticancer human tumor SW1271 cell line growth inhibition [AhR]; active means viability on the fitted dose curve at most 10% of control; inactive means the rest;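 further: spheroids exposed to agents for 7 days before readout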
Details: second compound 0.316 µM; first compound 10 µM
Respond with a class label; see active, inactive

Reference set, count: 4
compound	label
O=C(c1cc(Cc2n[nH]c(=O)c3ccccc23)ccc1F)N1CCN(C(=O)C2CC2)CC1 + Cc1cncc(-c2nc(NCCc3c[nH]c4ccccc34)c3ncn(C(C)C)c3n2)c1	inactive
CC(C)c1c(-c2ccccc2)nc2c(C#N)c[nH]n2c1=O + CC(CO)NC(=O)c1cc(-c2ccc(Cl)cc2)nn(-c2cnn(C)c2)c1=O	inactive
O=C(C=Cc1cccc(S(=O)(=O)Nc2ccccc2)c1)NO + Cc1cncc(-c2nc(NCCc3c[nH]c4ccccc34)c3ncn(C(C)C)c3n2)c1	inactive
NS(=O)(=O)OCC1CC(n2ccc3c(NC4CCc5ccccc54)ncnc32)CC1O (stereo not drawn) + Cc1cncc(-c2nc(NCCc3c[nH]c4ccccc34)c3ncn(C(C)C)c3n2)c1	inactive

Record request — test call for Nc1ccn(C2OC(CO)C(O)C2(F)F)c(=O)n1 (stereo not drawn) + CC(CO)NC(=O)c1cc(-c2ccc(Cl)cc2)nn(-c2cnn(C)c2)c1=O
inactive

Could you kindly confirm the outcome this assay logged for COc1cccc2c1C(=O)c1c(O)c3c(c(O)c1C2=O)CC(O)(C(=O)CO)CC3OC1CC(N)C(O)C(C)O1 (stereo not drawn) + CC(CO)NC(=O)c1cc(-c2ccc(Cl)cc2)nn(-c2cnn(C)c2)c1=O ?
active

What was the test verdict on Nc1ccccc1NC(=O)c1ccc(CNC(=O)OCc2cccnc2)cc1 + Cc1ccccc1N=Nc1ccc(NC(=O)c2ccnn2C)c(C)c1 ?
inactive

====

Test system: SW1271 complex spheroids with HUVEC/MSC, growth, % test/control
Test: Anticancer human tumor SW1271 cell line growth inhibition [AhR]; active = viability on the fitted dose curve at most 10% of control; inactive = the rest;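 further: spheroids exposed to agents for 7 days before readout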
Details: second compound 0.316 µM; first compound 3.16 µM
Classes to choose from: 1 (yes) = active, 0 (no) = inactive

compound	systemUnderTest	label
CC(C)c1c(-c2ccccc2)nc2c(C#N)c[nH]n2c1=O + Cc1cncc(-c2nc(NCCc3c[nH]c4ccccc34)c3ncn(C(C)C)c3n2)c1	SW1271 complex spheroids with HUVEC/MSC, growth, % test/control	0 (no)
NS(=O)(=O)OCC1CC(n2ccc3c(NC4CCc5ccccc54)ncnc32)CC1O (stereo unspecified) + Cc1ccccc1N=Nc1ccc(NC(=O)c2ccnn2C)c(C)c1	SW1271 complex spheroids with HUVEC/MSC, growth, % test/control	0 (no)
COc1cccc2c1C(=O)c1c(O)c3c(c(O)c1C2=O)CC(O)(C(=O)CO)CC3OC1CC(N)C(O)C(C)O1 (stereo unspecified) + Cc1cncc(-c2nc(NCCc3c[nH]c4ccccc34)c3ncn(C(C)C)c3n2)c1	SW1271 complex spheroids with HUVEC/MSC, growth, % test/control	1 (yes)
CC1(C)CCC(CN2CCN(c3ccc(C(=O)NS(=O)(=O)c4ccc(NCC5CCOCC5)c([N+](=O)[O-])c4)c(Oc4cnc5[nH]ccc5c4)c3)CC2)=C(c2ccc(Cl)cc2)C1 + Cc1ccccc1N=Nc1ccc(NC(=O)c2ccnn2C)c(C)c1	SW1271 complex spheroids with HUVEC/MSC, growth, % test/control	0 (no)
COc1cc(C2c3cc4c(cc3C(OC3OC5COC(C)OC5C(O)C3O)C3COC(=O)C23)OCO4)cc(OC)c1O (stereo unspecified) + Cc1cncc(-c2nc(NCCc3c[nH]c4ccccc34)c3ncn(C(C)C)c3n2)c1	SW1271 complex spheroids with HUVEC/MSC, growth, % test/control	0 (no)

From here, focus on the item given below.
# fetch the recorded call for O=C(c1cc(Cc2n[nH]c(=O)c3ccccc23)ccc1F)N1CCN(C(=O)C2CC2)CC1 + Cc1cncc(-c2nc(NCCc3c[nH]c4ccccc34)c3ncn(C(C)C)c3n2)c1 here
0 (no)

====

Property: viability, T/C; scope: individual compounds
Test system: SW1271 complex spheroids with HUVEC/MSC, growth, % test/control
Assay: Anticancer human tumor SW1271 cell line growth inhibition [AhR];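 further: spheroids exposed to agents for 7 days before readout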
Settings: second compound 10 µM; first compound 10 µM; hits give low values
Write it as a number; the unit % goes unstated.

Illustrative cases are given below, each with its answer.
compound	viability, T/C / %
CC1COCCN1c1cc(C2(S(C)(=N)=O)CC2)nc(-c2ccnc3[nH]ccc23)n1 (stereo not drawn) + CC(CO)NC(=O)c1cc(-c2ccc(Cl)cc2)nn(-c2cnn(C)c2)c1=O	62.9
COc1cc(Nc2ncc3c(n2)-c2ccc(Cl)cc2C(c2c(F)cccc2OC)=NC3)ccc1C(=O)O + Cc1ccccc1N=Nc1ccc(NC(=O)c2ccnn2C)c(C)c1	53.8

Here is the next item to consider.
Recorded viability, T/C for COc1cc(C2c3cc4c(cc3C(OC3OC5COC(C)OC5C(O)C3O)C3COC(=O)C23)OCO4)cc(OC)c1O (stereo not drawn) + CC(CO)NC(=O)c1cc(-c2ccc(Cl)cc2)nn(-c2cnn(C)c2)c1=O with SW1271 complex spheroids with HUVEC/MSC, growth, % test/control, please?
48.3

====

Test system: SW1271 complex spheroids with HUVEC/MSC, growth, % test/control
Assay: Anticancer human tumor SW1271 cell line growth inhibition [AhR]; active = viability on the fitted dose curve at most 10% of control; inactive = the rest;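 further: spheroids exposed to agents for 7 days before readout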
Settings: second compound 0.316 µM; first compound 3.16 µM
Valid outcomes are listed here; reply with one: 1.0 for active, 0.0 for inactive

compound	label
COc1cc(C2c3cc4c(cc3C(OC3OC5COC(C)OC5C(O)C3O)C3COC(=O)C23)OCO4)cc(OC)c1O (stereo unspecified) + CC(CO)NC(=O)c1cc(-c2ccc(Cl)cc2)nn(-c2cnn(C)c2)c1=O	0.0
CC1(C)CCC(CN2CCN(c3ccc(C(=O)NS(=O)(=O)c4ccc(NCC5CCOCC5)c([N+](=O)[O-])c4)c(Oc4cnc5[nH]ccc5c4)c3)CC2)=C(c2ccc(Cl)cc2)C1 + Cc1cncc(-c2nc(NCCc3c[nH]c4ccccc34)c3ncn(C(C)C)c3n2)c1	0.0
CC(C)c1c(-c2ccccc2)nc2c(C#N)c[nH]n2c1=O + Cc1ccccc1N=Nc1ccc(NC(=O)c2ccnn2C)c(C)c1	0.0
Nc1ccccc1NC(=O)c1ccc(CNC(=O)OCc2cccnc2)cc1 + CC(CO)NC(=O)c1cc(-c2ccc(Cl)cc2)nn(-c2cnn(C)c2)c1=O	0.0

Can you look up the reported call for Nc1ccn(C2OC(CO)C(O)C2(F)F)c(=O)n1 (stereo unspecified) + Cc1cncc(-c2nc(NCCc3c[nH]c4ccccc34)c3ncn(C(C)C)c3n2)c1 for me?
0.0

What classification did COc1cccc2c1C(=O)c1c(O)c3c(c(O)c1C2=O)CC(O)(C(=O)CO)CC3OC1CC(N)C(O)C(C)O1 (stereo unspecified) + CC(CO)NC(=O)c1cc(-c2ccc(Cl)cc2)nn(-c2cnn(C)c2)c1=O end up with in this test?
1.0

====

Tested on: SW1271 complex spheroids with HUVEC/MSC, growth, % test/control
Test: Anticancer human tumor SW1271 cell line growth inhibition [AhR];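 further: spheroids exposed to agents for 7 days before readout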
Details: second compound 0.316 µM; first compound 0.0316 µM; hits give low values
measuredParameter: viability, T/C (%)
Response body: numeric value in %, unit text excluded.

Field: example entries. Status: answers known.
compound	measuredParameter	reading
CC[C@@]1(O)C(=O)OCc2c1cc1n(c2=O)Cc2cc3c(CN(C)C)c(O)ccc3nc2-1 + CC(CO)NC(=O)c1cc(-c2ccc(Cl)cc2)nn(-c2cnn(C)c2)c1=O	viability, T/C	68.2
Nc1ncn(C2CC(O)C(CO)O2)c(=O)n1 (stereo unspecified) + CC(CO)NC(=O)c1cc(-c2ccc(Cl)cc2)nn(-c2cnn(C)c2)c1=O	viability, T/C	77.5
CC1(C)CCC(CN2CCN(c3ccc(C(=O)NS(=O)(=O)c4ccc(NCC5CCOCC5)c([N+](=O)[O-])c4)c(Oc4cnc5[nH]ccc5c4)c3)CC2)=C(c2ccc(Cl)cc2)C1 + Cc1ccccc1N=Nc1ccc(NC(=O)c2ccnn2C)c(C)c1	viability, T/C	110
O=C(C=Cc1cccc(S(=O)(=O)Nc2ccccc2)c1)NO + Cc1ccccc1N=Nc1ccc(NC(=O)c2ccnn2C)c(C)c1	viability, T/C	84.3
Cn1ncnc1C1c2n[nH]c(=O)c3cc(F)cc(c23)NC1c1ccc(F)cc1 (stereo unspecified) + CC(CO)NC(=O)c1cc(-c2ccc(Cl)cc2)nn(-c2cnn(C)c2)c1=O	viability, T/C	85.2

Write down the reported viability, T/C of O=C(C=Cc1cccc(S(=O)(=O)Nc2ccccc2)c1)NO + Cc1cncc(-c2nc(NCCc3c[nH]c4ccccc34)c3ncn(C(C)C)c3n2)c1 , test system: SW1271 complex spheroids with HUVEC/MSC, growth, % test/control.
104

====

Test system: SW1271 complex spheroids with HUVEC/MSC, growth, % test/control
Assay: Anticancer human tumor SW1271 cell line growth inhibition [AhR];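 further: spheroids exposed to agents for 7 days before readout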
Settings: second compound 10 µM; first compound 3.16 µM; hits give low values
measuredParameter: viability, T/C

Reference set, count: 5
compound	viability, T/C
COc1cccc2c1C(=O)c1c(O)c3c(c(O)c1C2=O)CC(O)(C(=O)CO)CC3OC1CC(N)C(O)C(C)O1 (configuration not stated) + Cc1ccccc1N=Nc1ccc(NC(=O)c2ccnn2C)c(C)c1	3.22%
CC(C)c1c(-c2ccccc2)nc2c(C#N)c[nH]n2c1=O + Cc1ccccc1N=Nc1ccc(NC(=O)c2ccnn2C)c(C)c1	88.2%
COc1ccc([C@@H](O)c2cc(-c3ncnc4cc(N5CCOCC5)ccc34)c(F)cc2Cl)nn1 + Cc1ccccc1N=Nc1ccc(NC(=O)c2ccnn2C)c(C)c1	41.2%
COc1cccc2c1C(=O)c1c(O)c3c(c(O)c1C2=O)CC(O)(C(=O)CO)CC3OC1CC(N)C(O)C(C)O1 (configuration not stated) + CC(CO)NC(=O)c1cc(-c2ccc(Cl)cc2)nn(-c2cnn(C)c2)c1=O	1.79%
NS(=O)(=O)OCC1CC(n2ccc3c(NC4CCc5ccccc54)ncnc32)CC1O (configuration not stated) + CC(CO)NC(=O)c1cc(-c2ccc(Cl)cc2)nn(-c2cnn(C)c2)c1=O	62.6%

Quick one: viability, T/C for O=C(C=Cc1cccc(S(=O)(=O)Nc2ccccc2)c1)NO + Cc1ccccc1N=Nc1ccc(NC(=O)c2ccnn2C)c(C)c1 ?
38.3%

Give its viability, T/C value. Item: Nc1ccccc1NC(=O)c1ccc(CNC(=O)OCc2cccnc2)cc1 + Cc1ccccc1N=Nc1ccc(NC(=O)c2ccnn2C)c(C)c1
41.2%

If you can, please state the reported viability, T/C value of CC1(C)CCC(CN2CCN(c3ccc(C(=O)NS(=O)(=O)c4ccc(NCC5CCOCC5)c([N+](=O)[O-])c4)c(Oc4cnc5[nH]ccc5c4)c3)CC2)=C(c2ccc(Cl)cc2)C1 + Cc1ccccc1N=Nc1ccc(NC(=O)c2ccnn2C)c(C)c1 .
83%

Can you share its viability, T/C? I mean this compound: COc1cc(Nc2ncc3c(n2)-c2ccc(Cl)cc2C(c2c(F)cccc2OC)=NC3)ccc1C(=O)O + Cc1cncc(-c2nc(NCCc3c[nH]c4ccccc34)c3ncn(C(C)C)c3n2)c1
42.5%

I'd like to know its viability, T/C. The compound in question is CC1(C)CCC(CN2CCN(c3ccc(C(=O)NS(=O)(=O)c4ccc(NCC5CCOCC5)c([N+](=O)[O-])c4)c(Oc4cnc5[nH]ccc5c4)c3)CC2)=C(c2ccc(Cl)cc2)C1 + Cc1cncc(-c2nc(NCCc3c[nH]c4ccccc34)c3ncn(C(C)C)c3n2)c1
48.9%

Can you share its viability, T/C? I mean this compound: CC1COCCN1c1cc(C2(S(C)(=N)=O)CC2)nc(-c2ccnc3[nH]ccc23)n1 (configuration not stated) + Cc1ccccc1N=Nc1ccc(NC(=O)c2ccnn2C)c(C)c1
68.1%

Would you mind telling me what viability, T/C value was observed for NS(=O)(=O)OCC1CC(n2ccc3c(NC4CCc5ccccc54)ncnc32)CC1O (configuration not stated) + Cc1cncc(-c2nc(NCCc3c[nH]c4ccccc34)c3ncn(C(C)C)c3n2)c1 ?
44.4%

The measurements presented in this section are drawn from PubChem BioAssay AID1919017.
